Measured values drawn from patent US20070196376A1 for this set.

# reported Kd; entries follow
- Target under test: T1, human insulin-like growth factor-II (IGF-II) (human, UniProt P01344 25-91)
- T1 construct: also called IGF2; IGF-2
- Protocol summary: Biacore high-resolution, mAb captured, IGF-II injected over a range of concentrations
Express your answer in nM, writing the number without its unit.

* mAb 7.34.1 (antibody, V domains shown, Fully human XenoMouse hybridoma mAb, lambda light chain (V1-13/JL2); also called ATCC PTA-7423) VH: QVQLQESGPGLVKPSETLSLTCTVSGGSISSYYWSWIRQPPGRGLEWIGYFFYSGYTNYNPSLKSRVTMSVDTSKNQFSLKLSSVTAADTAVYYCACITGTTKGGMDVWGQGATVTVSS VL: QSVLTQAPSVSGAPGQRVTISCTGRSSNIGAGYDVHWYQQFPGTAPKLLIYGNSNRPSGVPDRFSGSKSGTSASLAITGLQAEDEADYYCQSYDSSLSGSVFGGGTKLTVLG | 0.164
* mAb 7.251.3 (antibody, V domains shown, Fully human XenoMouse hybridoma mAb, lambda light chain (V1-13/JL2); also called ATCC PTA-7422) VH: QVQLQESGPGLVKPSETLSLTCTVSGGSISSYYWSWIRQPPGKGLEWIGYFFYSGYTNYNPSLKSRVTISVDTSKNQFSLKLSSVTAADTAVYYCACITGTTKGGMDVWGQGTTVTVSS VL: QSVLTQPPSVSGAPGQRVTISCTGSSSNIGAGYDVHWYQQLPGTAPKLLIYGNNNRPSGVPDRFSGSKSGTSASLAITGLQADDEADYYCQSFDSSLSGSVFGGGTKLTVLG | 0.0474
* mAb 7.234.2 (antibody, V domains shown, Kappa light chain (L5/JK3); also called 7.234.1; 7_234_1) VH: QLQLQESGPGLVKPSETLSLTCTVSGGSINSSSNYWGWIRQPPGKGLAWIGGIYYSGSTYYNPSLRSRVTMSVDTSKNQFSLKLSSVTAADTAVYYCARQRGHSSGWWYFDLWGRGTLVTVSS VL: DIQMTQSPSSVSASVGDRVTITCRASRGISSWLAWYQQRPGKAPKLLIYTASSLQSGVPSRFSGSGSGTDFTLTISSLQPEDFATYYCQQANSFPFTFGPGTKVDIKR | 0.295

Okay, now this binder:
Look up Kd: mAb 7.159.2 (antibody, V domains shown, Fully human XenoMouse hybridoma mAb, lambda light chain (V1-19/JL2); Sister clones 7.159.1 and 7.159.2 are said to be identical; also called 7.159.1; 7_159_1) VH: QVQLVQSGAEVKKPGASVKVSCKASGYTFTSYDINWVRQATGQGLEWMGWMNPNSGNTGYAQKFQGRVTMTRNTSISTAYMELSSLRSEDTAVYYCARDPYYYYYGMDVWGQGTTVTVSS VL: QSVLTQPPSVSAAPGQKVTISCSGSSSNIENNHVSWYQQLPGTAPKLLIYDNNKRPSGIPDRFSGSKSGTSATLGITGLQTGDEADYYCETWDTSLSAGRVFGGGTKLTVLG
0.0019
